# log10 CC50 per entry
Method summary: in vitro
Measurement setup: African green monkey
Structures can show the parent of a compound that is named as a salt.
Endpoint label: log10 CC50 (log10 of the value in µM)

- Compound: "CN1CCC(=C2c3ccccc3C=Cc3ccccc32)CC1 [Cyproheptadine hydrochloride]"
  Endpoint label: "log10 CC50"
  Value: 1.10
- Compound: "CC(C)[C@@]1(NC(=O)[C@@H]2C[C@@H]3c4cccc5[nH]cc(c45)C[C@H]3N(C)C2)O[C@@]2(O)[C@@H]3CCCN3C(=O)[C@H](Cc3ccccc3)N2C1=O [Dihydroergocristine]"
  Endpoint label: "log10 CC50"
  Value: 1.20
- Compound: "COc1c(C)cnc(Cn2cnc3c(Cl)nc(N)nc32)c1C"
  Endpoint label: "log10 CC50"
  Value: -0.46
- Compound: "CC(C)(O)CNc1ncc(-c2ccnc(Nc3ccnc(Cl)c3)n2)c(CC2CC2)n1 [VPS34-IN1, reference compound]"
  Endpoint label: "log10 CC50"
  Value: 1.00
- Compound: "Cn1c(Nc2ccc(C(F)(F)F)cc2)nc2cc(Oc3ccnc(-c4ncc(C(F)(F)F)[nH]4)c3)ccc21"
  Endpoint label: "log10 CC50"
  Value: -0.49
- Compound: "CN1CCC(c2cn(C)c3ccc(OS(=O)(=O)c4c(F)cccc4F)cc23)CC1"
  Endpoint label: "log10 CC50"
  Value: 0.95
- Compound: "CN1CCN(CCCN2c3ccccc3Sc3ccc(Cl)cc32)CC1 [Prochlorperazine dimaleate]"
  Endpoint label: "log10 CC50"
  Value: 1.35
- Compound: "Cc1ccc(NC(=O)Nc2cc(C(F)(F)F)ccc2F)cc1Nc1ccc2c(c1)NC(=O)/C2=C\\c1ccc[nH]1"
  Endpoint label: "log10 CC50"
  Value: 0.95
- Compound: "O=c1ccc2ccc(OCCCCN3CCN(c4cccc5sccc45)CC3)cc2[nH]1"
  Endpoint label: "log10 CC50"
  Value: 1.05
- Compound: "COc1cc(O)c2c(c1)[C@H]1O[C@@H]1C[C@H](O)[C@H](O)C(=O)/C=C\\C[C@H](C)OC2=O"
  Endpoint label: "log10 CC50"
  Value: 1.10
- Compound: "O=C(Nc1ccc(-c2ccnc(Nc3ccc(N4CCOCC4)cc3)n2)cc1)C1CCCN1 (centres unmarked)"
  Endpoint label: "log10 CC50"
  Value: 0.95
- Compound: "CC(C)COCC(CN(Cc1ccccc1)c1ccccc1)N1CCCC1 (centres unmarked)"
  Endpoint label: "log10 CC50"
  Value: 1.35
- Compound: "COc1cc(N2CCN(C)CC2)ccc1Nc1nccc(-c2cn(C)c3cnccc23)n1"
  Endpoint label: "log10 CC50"
  Value: 1.05
- Compound: "CN1CCN(CC/C=C2/c3ccccc3Sc3ccc(S(=O)(=O)N(C)C)cc32)CC1"
  Endpoint label: "log10 CC50"
  Value: 1.10
- Compound: "NC(=O)c1cccc2cn(-c3ccc([C@@H]4CCCNC4)cc3)nc12"
  Endpoint label: "log10 CC50"
  Value: 1.20
- Compound: "CN(C)CCCN1c2ccccc2Sc2ccc(Cl)cc21"
  Endpoint label: "log10 CC50"
  Value: 1.05
- Compound: "O=C(/C=C/c1ccccc1)NC(NC(=S)Nc1cccc2cccnc12)C(Cl)(Cl)Cl (centres unmarked)"
  Endpoint label: "log10 CC50"
  Value: 0.70
